- Test System: human NKp30 (human) (UniProt O14931)
- Sequence (O14931 19-135 limits assumed): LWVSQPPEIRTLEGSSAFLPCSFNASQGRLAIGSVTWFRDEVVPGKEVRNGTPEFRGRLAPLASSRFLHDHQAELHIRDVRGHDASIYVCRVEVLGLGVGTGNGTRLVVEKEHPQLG
- Protocol Notes: BLI, immunoligand on anti-hFc tip
Readout Type: kon (M⁻¹ s⁻¹)
Express your answer in M⁻¹ s⁻¹, writing the number without its unit.

>>> recorded_value("ΔB7-H6_S3#12-SEED-PGLALA (bispecific antibody, part only; not given: SEED Fc chains and hu225 Fab, part only) chain, part: DLKVEMMAGGTQITPLNDNVTIFCNIFYSQPLNITEMGITWFWKSLTFDKEVKVFEFFGDHQEAFRPGAIVSPWRLKSGDASLRLPGIQLEEAGEYRCEVVVTPYKAQGTVQLEVVASPAS")
671000
>>> recorded_value("ΔB7-H6_S3#32-SEED-PGLALA (bispecific antibody, part only; not given: SEED Fc chains and hu225 EGFR Fab, part only) chain, part: DLKVEMMAGGTQITPLNDNVTIFCNIFYSQPLNITEMGITWFWKSLTFDKEVKVFEFWGDHQEAFRPGAIVSPWRLKSGDASLRLPGIQLEEAGEYRCEVVVTPVKAQGTVQLEVVASPAS")
409000
>>> recorded_value("ΔB7-H6_S3#23-SEED-PGLALA (bispecific antibody, part only; not given: SEED Fc chains and hu225 Fab, part only) chain, part: DLKVEMMAGGTQITPLNDNVTIFCNIFYSQPLNITEMGITWFWKSLTFDKEVKVFEFYGDHQEAFRPGAIVSPWRLKSGDASLRLPGIQLEEAGEYRCEVVVTPYKAQGTVQLEVVASPAS")
479000

-- ask Look up kon for this binder: ΔB7-H6_S3#28-SEED-PGLALA (bispecific antibody, part only; not given: SEED Fc chains and hu225 EGFR Fab, part only) chain, part: DLKVEMMAGGTQITPLNDNVTIFCNIFYSQPLNITHMGITWFWKSLTFDKEVKVFEFWGDHQEAFRPGAIVSPWRLKSGDASLRLPGIQLEEAGEYRCEVVVTPLKAQGTVQLEVVASPAS
-- reply 306000

-- ask Which kon reading was recorded for the binder ΔB7-H6_S3#24-SEED-PGLALA (bispecific antibody, part only; not given: SEED Fc chains and hu225 Fab, part only) chain, part: DLKVEMMAGGTQITPLNDNVTIFCNIFYSQPLNITIMGITWFWKSLTFDKEVKVFEFYGDHQEAFRPGAIVSPWRLKSGDASLRLPGIQLEEAGEYRCEVVVTPYKAQGTVQLEVVASPAS ?
-- reply 702000

-- ask Tell me the measured kon of ΔB7-H6_S3#3-SEED-PGLALA (bispecific antibody, part only; not given: SEED Fc chains and hu225 Fab, part only) chain, part: DLKVEMMAGGTQITPLNDNVTIFCNIFYSQPLNITHMGITWFWKSLTFDKEVKVFEFFGDHQEAFRPGAIVSPWRLKSGDASLRLPGIQLEEAGEYRCEVFVTPYKAQGTVQLEVVASPAS , please.
-- reply 1.05e+06

-- ask Given the entry ΔB7-H6_S2#3-SEED-PGLALA (bispecific antibody, part only; not given: SEED Fc chains and hu225 Fab, part only) chain, part: DLKVEMMAGGTQITPLNDNVTIFCNIFYSQPLNITTMGITWFWKSLTFDKEVKVFEFWGDHQEAFRPGAIVSPWRLKSGDASLRLPGIQLEEAGEYRCEVVVTPLKAQGTVQLEVVASPAS , report its measured kon.
-- reply 546000

-- ask Entry ΔB7-H6_S3#16-SEED-PGLALA (bispecific antibody, part only; not given: SEED Fc chains and hu225 Fab, part only) chain, part: DLKVEMMAGGTQITPLNDNVTIFCNIFYSQPLNITLMGITWFWKSLTFDKEVKVFEFYGDHQEAFRPGAIVSPWRLKSGDASLRLPGIQLEEAGEYRCEVVVTPYKAQGTVQLEVVASPAS has what kon?
-- reply 1.01e+06

-- ask So what's the measured kon for this one? ΔB7-H6_S3#21-SEED-PGLALA (bispecific antibody, part only; not given: SEED Fc chains and hu225 Fab, part only) chain, part: DLKVEMMAGGTQITPLNDNVTIFCNIFYSQPLNITLMGITWFWKSLTFDKEVKVFEFWGDHQEAFRPGAIVSPWRLKSGDASLRLPGIQLEEAGEYRCEVVVTPYKAQGTVQLEVVASPAS
-- reply 1.18e+06

-- ask Fill blank: measured kon of the binder ΔB7-H6_S3#27-SEED-PGLALA (bispecific antibody, part only; not given: SEED Fc chains and hu225 EGFR Fab, part only) chain, part: DLKVEMMAGGTQITPLNDNVTIFCNIFYSQPLNITTMGITWFWKSLTFDKEVKVFEFWGDHQEAFRPGAIVSPWRLKSGDASLRLPGIQLEEAGEYRCEVIVTPYKAQGTVQLEVVASPAS is ____.
-- reply 669000

-- ask For the binder shown here, ΔB7-H6_S3#2-SEED-PGLALA (bispecific antibody, part only; not given: SEED Fc chains and hu225 EGFR Fab, part only) chain, part: DLKVEMMAGGTQITPLNDNVTIFCNIFYSQPLNITWMGITWFWKSLTFDKEVKVFEFWGDHQEAFRPGAIVSPWRLKSGDASLRLPGIQLEEAGEYRCEVVVTPYKAQGTVQLEVVASPAS , give the reported kon.
-- reply 1.04e+06

-- ask Look at this binder and give its reported kon. ΔB7-H6_S3#6-SEED-PGLALA (bispecific antibody, part only; not given: SEED Fc chains and hu225 Fab, part only) chain, part: DLKVEMMAGGTQITPLNDNVTIFCNIFYSQPLNITHMGITWFWKSLTFDKEVKVFEFWGDHQEAFRPGAIVSPWRLKSGDASLRLPGIQLEEAGEYRCEVVVTPYKAQGTVQLEVVASPAS
-- reply 737000

-- ask Consider the binder shown here: ΔB7-H6_S2#6-SEED-PGLALA (bispecific antibody, part only; not given: SEED Fc chains and hu225 EGFR Fab, part only) chain, part: DLKVEMMAGGTQITPLNDNVTIFCNIFYFQPLNITEMGITWFWKSLTFDKEVKVFEFFGDHQEAFRPGAIVSPWRLKSGDASLRLPGIQLEEAGEYRCEVIVTPLKAQGTVQLEVVASPAS What is its recorded kon?
-- reply 1.32e+06

-- ask Entry ΔB7-H6_S3#14-SEED-PGLALA (bispecific antibody, part only; not given: SEED Fc chains and hu225 Fab, part only) chain, part: DLKVEMMAGGTQITPLNDNVTIFCNIFYSQPLNITTMGITWFWKSLTFDKEVKVFEFYGDHQEAFRPGAIVSPWRLKSGDASLRLPGIQLEEAGEYRCEVVVTPYKAQGTVQLEVVASPAS : reported kon = ?
-- reply 933000

-- ask What measured kon goes with ΔB7-H6_S3#31-SEED-PGLALA (bispecific antibody, part only; not given: SEED Fc chains and hu225 EGFR Fab, part only) chain, part: DLKVEMMAGGTQITPLNDNVTIFCNIFYSQPLNITIMGITWFWKSLTFDKEVKVFEFYGDHQEAFRPGAIVSPWRLKSGDASLRLPGIQLEEAGEYRCEVVVTPLKAQGTVQLEVVASPAS ?
-- reply 616000
